The origin of these recorded values is patent US20140058068A1.

# testedSystem: T1, GHRH receptor of human pituitary membrane homogenates (human, UniProt Q02643 23-423)
# T1 construct: whole, on cells; Native receptor in pituitary membrane homogenates, not intact cells; also called hGH-RH receptor
# T1 sequence (looked up): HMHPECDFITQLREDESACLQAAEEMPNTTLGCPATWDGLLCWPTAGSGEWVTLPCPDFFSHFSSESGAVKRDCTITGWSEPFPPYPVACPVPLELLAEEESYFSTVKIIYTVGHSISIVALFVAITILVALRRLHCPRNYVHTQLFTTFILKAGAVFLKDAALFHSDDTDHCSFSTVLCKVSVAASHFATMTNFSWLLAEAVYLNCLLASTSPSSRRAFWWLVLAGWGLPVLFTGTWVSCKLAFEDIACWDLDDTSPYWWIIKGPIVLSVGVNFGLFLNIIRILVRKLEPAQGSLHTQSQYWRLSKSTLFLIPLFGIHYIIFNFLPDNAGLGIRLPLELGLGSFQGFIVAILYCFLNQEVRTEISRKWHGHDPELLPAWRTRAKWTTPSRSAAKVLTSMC
# assayProtocol: radioligand competition, 125I-JV-1-42 (~0.2 nM) as competitor, human pituitary membrane homogenates
Square brackets hold non-standard residues; d marks the D form. Ends that are not written are not given here. * marks the point of attachment. NMeY = CN[C@@H](Cc1ccc(O)cc1)C(=O)O; Agmatine = N=C(N)NCCCCN*; Nle = CCCC[C@H](N)C(=O)O; Orn = NCCC[C@H](N)C(=O)O; Abu = CC[C@H](N)C(=O)O; Ava = NCCCCC(=O)O
Lab note: cut-off is 0.3 nM. Strictly less in IC50 is Y. Exactly 0.3 nM or more is N.

INSERT INTO assay_data (binder, assignedcategory) VALUES
  ('[NMeY]ADAIFTQSYR[Orn]VL[Abu]QLSAR[Orn]LLQDI[Nle]SR-NHMe [[N-Me-Tyr^1, Gln^8, Orn^12, Abu^15, Orn^21, Nle^27]hGH-RH(1-29)NH-CH3]', 'N'),
  ('[NMeY]ADAIFTQSYR[Orn]VL[Abu]QLSAR[Orn]LLQDI[Nle]D[Agmatine] (also called P20356) [[N-Me-Tyr^1, Gln^8, Orn^12, Abu^15, Orn^21, Nle^27, Asp^28, Agm^29]hGH-RH(1-29)]', 'Y'),
  ('[NMeY]ADAIFTQSYR[Orn]VL[Abu]QLSAR[Orn]LLQDI[Nle]DR[Ava]-NH2 (also called Peptide 22325) [[N-Me-Tyr^1, Gln^8, Orn^12, Abu^15, Orn^21, Nle^27, Asp^28, Apa^30]hGH-RH(1-30)NH2]', 'N'),
  ('[NMeY][dA]DAIFTTSYR[Orn]VL[Abu]QLSAR[Orn]LLQDI[Nle]DR-NHMe [[N-Me-Tyr^1, D-Ala^2, Thr^8, Orn^12, Abu^15, Orn^21, Nle^27, Asp^28]hGH-RH(1-29)NH-CH3]', 'N');
